Consider the following sequences and their measured IRAK1(h) % activity readings.
# measured-target: IRAK1(h) (Homo sapiens, UniProt P51617)
# Construct: purchased Millipore
# Sequence (P51617 whole entry): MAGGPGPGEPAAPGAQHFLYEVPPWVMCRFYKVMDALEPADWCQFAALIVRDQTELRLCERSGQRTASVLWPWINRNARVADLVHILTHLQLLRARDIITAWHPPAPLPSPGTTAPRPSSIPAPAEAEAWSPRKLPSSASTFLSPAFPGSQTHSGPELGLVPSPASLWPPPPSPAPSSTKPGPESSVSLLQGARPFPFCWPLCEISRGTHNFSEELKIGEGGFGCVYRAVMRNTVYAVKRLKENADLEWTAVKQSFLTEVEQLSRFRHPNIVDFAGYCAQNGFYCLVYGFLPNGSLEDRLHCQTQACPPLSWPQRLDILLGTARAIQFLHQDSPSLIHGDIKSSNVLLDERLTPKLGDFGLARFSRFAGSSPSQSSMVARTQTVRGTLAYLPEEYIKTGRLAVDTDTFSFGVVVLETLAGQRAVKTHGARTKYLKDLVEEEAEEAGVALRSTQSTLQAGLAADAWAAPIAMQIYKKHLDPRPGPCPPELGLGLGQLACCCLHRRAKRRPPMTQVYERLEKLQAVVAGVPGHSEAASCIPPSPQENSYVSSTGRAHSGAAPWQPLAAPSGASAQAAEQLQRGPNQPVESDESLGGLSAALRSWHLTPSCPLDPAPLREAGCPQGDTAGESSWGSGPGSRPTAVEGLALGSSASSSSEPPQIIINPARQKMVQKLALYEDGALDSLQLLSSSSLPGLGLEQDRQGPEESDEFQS
# test: Kinase Profiling Assay
# Format: biochemical
# conditions-used: 100 μM peptide
# Protocol: Every kinase activity measurement was conducted in duplicate. In addition to determining the IC50 of the compound, the specificity of MK2 inhibitory peptides was assessed by examining activities of all 266 human kinases available for testing in the Millipore kinase profiling service (Table 1).
measured-attribute: IRAK1(h) % activity (%)

1. YARAAARQARAKALNRQLGVA (Mammalian) [MMI-0200]: 101
2. HRRIKAWLKKIKALARQLGVAA (Mammalian) [MMI-0500]: 5
3. FAKLAARLYRKALARQLGVAA [MMI-0300]: 95
4. KAFAKLAARLYRKALARQLGVAA [MMI-0400]: 93
